Would you mind telling me the reported composite z-score of each entry?
# System: Sonic hedgehog protein (Shh)
# assay-text: small-molecule binders of Shh protein, primary screen, biochemical, small-molecule microarray, 635/667 nm fluorescence (AID 1151);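 note: Shh protein binding to compounds spotted on small-molecule microarray slides; score combines spot fluorescence intensity with signal-to-noise across triplicate slides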
# measurement-conditions: small-molecule microarray binding, 635 nm fluorescence; higher = more signal

Form field: reported composite z-score of COc1ccc(CCNC(=O)[C@@H]2c3ccccc3C(=O)N(Cc3ccccc3Cl)[C@H]2c2ccc(CO)cc2)cc1 -0.214

Form field: reported composite z-score of O=C1C[C@]2(c3ccc([N+](=O)[O-])cc3)C(=O)N(CC(F)(F)F)c3cc(CO)ccc3[C@H]2N1C1CCCCC1 -0.444

Form field: reported composite z-score of O=C1NC(=O)C2C1C=CC(C(O)c1cccs1)N2Nc1ccc(Cl)cc1Cl (stereo not given) -0.0963

Form field: reported composite z-score of C=C[C@H](OC)[C@@H](OC(=O)Nc1ccc(OC)cc1)c1ccc(O)c(F)c1 0.665

Form field: reported composite z-score of O=C(NCCN1CCOCC1)C1N=C(c2ccc(OCCCO)cc2)N(c2ccccc2)O1 (stereo not given) 1.42

Form field: reported composite z-score of COCCOC(=O)N1C(=O)[C@@]2(c3cc(C#CC4(O)CCCCCC4)ccc31)[C@H](c1ccccc1OCCO)N1[C@H](c3ccccc3)[C@H](c3ccccc3)OC(=O)[C@H]1[C@@H]2C(=O)N1CCN(c2ncccn2)CC1 0.678

Form field: reported composite z-score of O=C1c2ccccc2[C@](Cc2ccccc2I)(C(=O)NCCN2CCOCC2)[C@H](c2ccc(CO)cc2)N1Cc1ccccc1Cl 1.43

Form field: reported composite z-score of O=C1[C@@]23C=C(Br)[C@H](C[C@@H]2CCOC3)[C@@]12CO2 0.534

Form field: reported composite z-score of COC(=O)[C@@]1(Cc2ccc(F)cc2)[C@H]2c3cc(C(=O)N(C)C)n(Cc4ccccc4)c3C[C@H]2CN1C(=O)c1ccccc1 0.0292

Form field: reported composite z-score of O=C(CS)NCCCCCCNC(=O)[C@@H]1C[C@@H]2C(=O)NCC(=O)N2[C@@H]1c1cccc(OCCO)c1 0.88

Form field: reported composite z-score of C=C(CCCC)/C(=C/C[C@H](OC(C)=O)c1ccccc1OCCO)c1cc(C(=O)OC)ccc1OC 0.199

Form field: reported composite z-score of CN(C)CCCC[C@@H]1NC(=O)[C@@H]2C[C@H](C(=O)NCCCCCCN)[C@H](c3cccc(OCCO)c3)N2C1=O 0.68

Form field: reported composite z-score of CC(C)=CCCC(C)=CC(O)C1C=CC2C(=O)N(C)C(=O)C2N1Nc1ccccc1 (stereo not given) 1.32

Form field: reported composite z-score of NC(=O)NCC#Cc1ccc2c(c1)[C@]1(C(=O)N2)[C@H](c2ccc(O)cc2)N2[C@H](c3ccccc3)[C@H](c3ccccc3)OC(=O)[C@H]2[C@@H]1C(=O)O -0.453

Form field: reported composite z-score of COc1cc2c(cc1OC)CN(C(=O)[C@H]1[C@@H]3C(=O)O[C@@H](c4ccccc4)[C@@H](c4ccccc4)N3[C@@H](c3ccc(O)cc3)[C@]13C(=O)Nc1ccc(C#CCCO)cc13)CC2 0.0545
